Tested on: P. falciparum chloroquine-resistant strain FcB1-Columbia
Experiment: Antiplasmodial screen at 10 µM and chemosensitivity assay (SYBR Green I), FcB1-Columbia
Assay type: cell-based, Plasmodium falciparum
Settings: Plasmodium falciparum; FcB1-Columbia strain; read-out: IC50 on P. falciparum
# IC50 values compiled below
Output spec: scalar in µM, unitless text.

Use the examples below as a reference point.
CCc1cc(-c2ccccn2)nc(-c2ccccn2)c1 : 0.91
CC(ON1C(C)(C)CC(O)CC1(C)C)c1cc(-c2ccccn2)nc(-c2ccccn2)c1 (racemic) [(R/S)-8F] : 0.14

Note: attention shifts to another entry.
Problem: Give its IC50 value. Item: C[C@@H]1CC[C@H]2[C@@H](C)C(=O)O[C@@H]3O[C@@]4(C)CC[C@@H]1[C@]32OO4 [Artemisinin, reference compound]
Result: 0.04

###

Test system: Vero cells
Test: Cytotoxicity assay (MTT)
Conditions: read-out: Cytotoxicity Mean IC50, Vero cell lines; 48 h, MTT
Reported values of pIC50 for individual entries
The meaning of pIC50 here: minus log10 of the concentration in molar units.

CCOP(=O)(OCC)C(N(OC(C)c1cc(-c2ccccn2)nc(-c2ccccn2)c1)C(C)(C)C(=O)O)C(C)(C)C (stereo not shown) [(RR/SS)-4F] : 5.09
CCOP(=O)(OCC)C(N(OC(C)c1ccc2ccc3cccnc3c2n1)C(C)(C)CO)C(C)(C)C (stereo not shown) [2J] : 4.77

Next item in the queue.
Problem: State its pIC50 on Vero cells: CCOP(=O)(OCC)C(N(OC(C)c1ccc2ccc3cccnc3c2n1)C(C)(C)C)C(C)(C)C (stereo not shown) [1J]
Result: 5.21

###

Assay: Homolysis of the NO–C bond measured by EPR
Conditions: t-BuPh
The following compounds are listed with their measured re-estimated homolysis rate constant kd at 120 °C values.

# annotated cases, reported re-estimated homolysis rate constant kd at 120 °C shown
CCOP(=O)(OCC)C(N(OC(C)c1cc(-c2ccccn2)nc(-c2ccccn2)c1)C(C)(C)CO)C(C)(C)C (stereo not shown) [(RR/SS)-2F] : 38.4 10^−3 s^−1
CCOP(=O)(OCC)C(N(OC(C)c1cc(-c2ccccn2)nc(-c2ccccn2)c1)C(C)(C)CO[Si](C)(C)C(C)(C)C)C(C)(C)C (stereo not shown) [(RS/SR)-6F] : 16.3 10^−3 s^−1

Problem: Looking for the measured re-estimated homolysis rate constant kd at 120 °C of CCOP(=O)(OCC)C(N(OC(C)c1cc(-c2ccccc2)cc(-c2ccccc2)c1)C(C)(C)CO[Si](C)(C)C(C)(C)C)C(C)(C)C (stereo not shown) [(RS/SR)-6G] , can you help?
Result: 6.50 10^−3 s^−1

Problem: I'd like to know its re-estimated homolysis rate constant kd at 120 °C. The compound in question is CC(ON1C(C)(C)CCCC1(C)C)c1cc(-c2ccccn2)nc(-c2ccccn2)c1 (stereo not shown)
Result: 0.95 ^k 10^−3 s^−1

Problem: Please report the recorded re-estimated homolysis rate constant kd at 120 °C for CCOP(=O)(OCC)C(N(OC(C)c1cc(-c2ccccc2)cc(-c2ccccc2)c1)C(C)(C)CO)C(C)(C)C (stereo not shown) [(RS/SR)-2G] .
Result: 21.6 10^−3 s^−1

Problem: Which measured re-estimated homolysis rate constant kd at 120 °C value corresponds to CCOP(=O)(OCC)C(N(OC(C)c1cc(-c2ccccc2)cc(-c2ccccc2)c1)C(C)(C)CO)C(C)(C)C (stereo not shown) [(RR/SS)-2G] ?
Result: 21.1 10^−3 s^−1

Problem: So what does the record say about re-estimated homolysis rate constant kd at 120 °C for CCOP(=O)(OCC)C(N(OC(C)c1cc(-c2ccccn2)nc(-c2ccccn2)c1)C(C)(C)CO[Si](C)(C)C(C)(C)C)C(C)(C)C (stereo not shown) [(RR/SS)-6F] ?
Result: 8.5 10^−3 s^−1
